Target: CD22 (Homo sapiens, UniProt P20273)
Construct: The soluble CD22 protein was expressed in the CHO-Lec1 cell line; made in house; host or cells: CHO-Lec1
Sequence (P20273 20-687 limits assumed): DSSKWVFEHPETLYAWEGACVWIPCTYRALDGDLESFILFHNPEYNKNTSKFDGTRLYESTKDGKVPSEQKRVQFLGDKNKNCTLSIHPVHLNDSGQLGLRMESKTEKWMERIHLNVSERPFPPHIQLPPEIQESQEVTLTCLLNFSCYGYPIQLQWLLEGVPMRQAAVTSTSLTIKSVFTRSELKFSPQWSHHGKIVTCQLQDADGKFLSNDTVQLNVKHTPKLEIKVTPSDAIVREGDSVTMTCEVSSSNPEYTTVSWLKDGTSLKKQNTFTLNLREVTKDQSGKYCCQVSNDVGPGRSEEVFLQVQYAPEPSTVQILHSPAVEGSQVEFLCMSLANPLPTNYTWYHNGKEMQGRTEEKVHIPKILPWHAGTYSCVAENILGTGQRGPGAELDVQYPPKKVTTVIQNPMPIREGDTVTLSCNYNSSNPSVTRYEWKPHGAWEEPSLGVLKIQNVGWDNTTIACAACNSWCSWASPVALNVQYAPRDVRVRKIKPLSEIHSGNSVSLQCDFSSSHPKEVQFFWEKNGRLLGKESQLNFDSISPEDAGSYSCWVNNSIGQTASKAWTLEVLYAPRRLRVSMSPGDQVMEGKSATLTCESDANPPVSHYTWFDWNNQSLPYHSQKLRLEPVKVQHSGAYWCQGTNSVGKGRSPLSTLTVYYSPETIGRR
Experiment: ELISA-based inhibition assay: inhibition of binding of soluble CD22 to immobilized IgM
Conditions: Table II; relative to reference compound 10 co-tested in the same assay (rIP = 1)
Reported endpoint: rIP

Smiles notation	System	Result
CC(=O)N[C@@H]1[C@@H](NC(=O)c2cccc(C)c2)[C@H](O)[C@](OCCCCCC(=O)[O-])(C(=O)[O-])O[C@H]1[C@H](O)[C@H](O)CNC(=O)c1ccc(-c2ccccc2)cc1.[Na+].[Na+]	CD22 (Homo sapiens, UniProt P20273)	0.51

**Q:** # input compound: CC(=O)N[C@@H]1[C@@H](NC(=O)CN(C)C)[C@H](O)[C@](OCCCCCC(=O)[O-])(C(=O)[O-])O[C@H]1[C@H](O)[C@H](O)CNC(=O)c1ccc(-c2ccccc2)cc1.[Na+].[Na+] ; wanted: its rIP
**A:** 0.18

**Q:** Likewise for COc1cccc(C(=O)N[C@@H]2[C@@H](NC(C)=O)[C@H]([C@H](O)[C@H](O)CNC(=O)c3ccc(-c4ccccc4)cc3)O[C@@](OCCCCCC(=O)[O-])(C(=O)[O-])[C@H]2O)c1.[Na+].[Na+] ?
**A:** 0.34

**Q:** Now consider CC(=O)N[C@@H]1[C@@H](NC(=O)CCCl)[C@H](O)[C@](OCCCCCC(=O)[O-])(C(=O)[O-])O[C@H]1[C@H](O)[C@H](O)CNC(=O)c1ccc(-c2ccccc2)cc1.[Na+].[Na+] .
**A:** 0.84
